- System: IGROV1 ovarian
- methodSummary: NCI tumour cell line growth inhibition, 48 h
The reader will find reported TGI values listed item by item below.

Completed entries (count: 5):
Cn1cc(-c2csc(-c3c[nH]c4ccc(F)cc34)n2)c2cnccc21    3.09 µM
N#Cc1c(-c2ccc(Cl)cc2Cl)nc2[nH][nH]c(=S)n2c1=O    > 100 µM
COc1cc(C2c3cc4c(cc3OC3(OC)COC(=O)C23)OCO4)cc(OC)c1OC(C)=O (configuration not stated)    > 100 µM
Cn1cc(C2=C(c3cn(CCCCO)c4ccccc34)C(=O)NC2=O)c2ccccc21    > 22.9 µM
CC12CP(=O)(c3ccccc3)CC1C2(Cl)Cl (configuration not stated)    > 100 µM

query: TGI for O=C(O)[C@@H]1CCS(=O)(=O)N1 ?
result: > 100 µM

query: TGI for O=C(c1ccccc1Br)C(F)(F)F ?
result: > 100 µM

query: TGI for CCOC(=O)C(=[N+]=[N-])[Si](C)(C)C ?
result: > 100 µM

query: TGI for CN=C(N=Nc1c(O)[nH]c2ccccc12)SCC(=O)c1ccc(Br)cc1 ?
result: > 100 µM

query: TGI for CC(=O)OC12C=CC(=O)N1c1ccccc1C(=O)O2 (configuration not stated) ?
result: > 100 µM

query: TGI for COC(=O)/C=C(\C)CC(O)/C=C(\C)CCC=C(C)C (configuration not stated) ?
result: > 100 µM

query: TGI for O=C(CCc1n[nH]c(=S)o1)Nc1ccccc1C(F)(F)F ?
result: > 100 µM
